FYI, the data here is from patent US8530487B1.

Measured IC50 of individual entries
Molecular target: human TRPA1 (Homo sapiens, UniProt O75762)
Sequence (O75762 whole entry): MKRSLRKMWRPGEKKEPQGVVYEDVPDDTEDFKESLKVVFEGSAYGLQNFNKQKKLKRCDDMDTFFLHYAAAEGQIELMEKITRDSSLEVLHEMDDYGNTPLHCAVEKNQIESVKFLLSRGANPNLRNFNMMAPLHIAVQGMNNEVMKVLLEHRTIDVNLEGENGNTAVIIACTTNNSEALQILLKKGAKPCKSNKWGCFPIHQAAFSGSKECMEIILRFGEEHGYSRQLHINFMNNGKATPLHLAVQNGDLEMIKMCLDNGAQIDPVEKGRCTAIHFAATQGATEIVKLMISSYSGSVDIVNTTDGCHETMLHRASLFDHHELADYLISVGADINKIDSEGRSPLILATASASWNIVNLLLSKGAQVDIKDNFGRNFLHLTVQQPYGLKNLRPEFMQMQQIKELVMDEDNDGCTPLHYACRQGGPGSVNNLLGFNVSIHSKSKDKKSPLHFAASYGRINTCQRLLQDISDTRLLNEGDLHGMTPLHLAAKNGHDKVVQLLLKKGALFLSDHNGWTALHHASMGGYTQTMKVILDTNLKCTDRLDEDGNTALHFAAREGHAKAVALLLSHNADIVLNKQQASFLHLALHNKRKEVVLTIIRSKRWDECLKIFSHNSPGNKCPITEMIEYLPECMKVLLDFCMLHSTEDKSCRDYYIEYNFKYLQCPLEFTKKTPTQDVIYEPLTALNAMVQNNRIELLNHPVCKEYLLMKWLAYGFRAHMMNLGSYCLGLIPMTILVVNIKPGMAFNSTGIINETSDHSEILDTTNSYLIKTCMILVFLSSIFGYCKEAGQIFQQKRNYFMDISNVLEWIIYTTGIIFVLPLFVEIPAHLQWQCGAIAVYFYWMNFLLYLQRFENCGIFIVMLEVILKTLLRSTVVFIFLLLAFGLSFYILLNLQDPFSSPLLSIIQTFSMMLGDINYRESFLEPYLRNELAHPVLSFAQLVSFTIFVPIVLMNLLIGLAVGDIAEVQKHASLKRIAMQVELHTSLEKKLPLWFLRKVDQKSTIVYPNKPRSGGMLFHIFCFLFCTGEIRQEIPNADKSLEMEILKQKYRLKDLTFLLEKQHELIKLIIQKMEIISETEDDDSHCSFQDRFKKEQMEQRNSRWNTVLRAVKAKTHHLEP
Assay: cell-based
Conditions: read-out: Activity (IC50)

{"Molecule": "C=CCOc1cccc(C2NC(=O)NC3=C2C(=O)c2ccccc23)c1C(F)(F)F (stereo not drawn) [Compound 454]", "Measured Value": "> 1 µM"}

## Task Fill in: IC50 of O=C1NC2=C(C(=O)c3ccccc32)C(c2cccnc2)N1 (stereo not drawn) is ___
## Result > 1 µM

---

Biological target: human TRPA1 (Homo sapiens, UniProt O75762)
Test: cell-based
Conditions: read-out: Activity (IC50)
pIC50: −log10 of the molar value.
Assay Readout: pIC50

{"Compound": "CCCCCOc1cccc(C2NC(=O)NC3=C2C(=O)c2ccccc23)c1 (centres unmarked) [Compound 460]", "Measured Value": "< 6.00"}
{"Compound": "N#Cc1cccc(C2NC(=S)NC3=C2C(=O)c2ccccc23)c1 (centres unmarked) [Compound 307]", "Measured Value": "> 7.00"}
{"Compound": "COc1cccc(C2NC(=O)NC3=C2C(=O)c2ccccc23)c1Cl (centres unmarked) [Compound 428]", "Measured Value": "< 6.00"}
{"Compound": "CCOc1cccc(C2NC(=O)NC3=C2C(=O)c2ccccc23)c1F (centres unmarked) [Compound 616]", "Measured Value": "> 7.00"}

Consider the record given below.
## Task Fill in: pIC50 of CC(F)(F)Oc1cccc(C2NC(=O)NC3=C2C(=O)c2ccccc23)c1 (centres unmarked) [Compound 450] is ___
## Result < 6.00
